Every entry's value here was drawn from patent US8168651B2.

Biological target: FLT3 autophos (Homo sapiens (Human))
Sequence (P36888 27-993): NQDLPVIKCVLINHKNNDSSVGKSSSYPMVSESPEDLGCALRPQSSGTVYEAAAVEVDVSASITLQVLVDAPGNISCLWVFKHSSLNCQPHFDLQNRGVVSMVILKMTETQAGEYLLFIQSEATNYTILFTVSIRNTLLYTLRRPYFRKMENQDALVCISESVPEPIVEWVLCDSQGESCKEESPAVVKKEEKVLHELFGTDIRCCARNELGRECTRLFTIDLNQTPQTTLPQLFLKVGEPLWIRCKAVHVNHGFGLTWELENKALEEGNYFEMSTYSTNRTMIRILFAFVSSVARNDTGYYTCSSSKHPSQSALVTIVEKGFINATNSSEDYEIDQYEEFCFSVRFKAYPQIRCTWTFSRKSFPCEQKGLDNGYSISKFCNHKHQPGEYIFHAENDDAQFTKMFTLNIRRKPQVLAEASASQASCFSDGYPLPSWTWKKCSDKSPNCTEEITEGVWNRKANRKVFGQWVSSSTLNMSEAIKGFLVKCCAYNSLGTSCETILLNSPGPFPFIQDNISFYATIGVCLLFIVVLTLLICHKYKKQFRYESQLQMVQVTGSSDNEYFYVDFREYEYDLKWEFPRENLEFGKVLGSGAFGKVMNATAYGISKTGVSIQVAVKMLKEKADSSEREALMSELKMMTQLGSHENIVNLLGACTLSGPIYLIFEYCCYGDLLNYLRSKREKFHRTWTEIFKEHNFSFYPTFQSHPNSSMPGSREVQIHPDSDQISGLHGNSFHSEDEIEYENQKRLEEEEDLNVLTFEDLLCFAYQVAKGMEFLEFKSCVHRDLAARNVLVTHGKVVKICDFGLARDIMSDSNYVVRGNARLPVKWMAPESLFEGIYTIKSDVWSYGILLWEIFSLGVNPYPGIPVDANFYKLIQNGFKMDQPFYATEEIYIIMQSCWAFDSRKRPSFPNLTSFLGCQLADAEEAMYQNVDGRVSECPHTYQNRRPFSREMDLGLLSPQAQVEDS
Assay: FLT3 autophos IC50 (Table 46)
pIC50: −log10 of the molar value.
Known pIC50 of a selection of molecules

- structureString: "COc1ccc(Nc2nc3c(-c4nnc[nH]4)cccc3c3cnccc23)c(F)c1"
  pIC50: "< 5.00"
- structureString: "CN(C)CCOc1ccc(Nc2nc3c(-c4nnc[nH]4)cccc3c3cnccc23)cc1"
  pIC50: "< 5.00"
- structureString: "c1cc(-c2nnc[nH]2)c2nc(NC3CCC3)c3ccncc3c2c1"
  pIC50: "< 5.00"
- structureString: "Clc1cc(OCCN2CCOCC2)ccc1Nc1nc2c(-c3nnc[nH]3)cccc2c2cnccc12"
  pIC50: 5.22
- structureString: "c1cc(-c2nnc[nH]2)c2nc(Nc3ccc(OCCN4CCOCC4)cc3)c3ccncc3c2c1"
  pIC50: "< 5.00"

----------
System: HCT-116 human colorectal carcinoma cells
Test: Cell-proliferation assay using Alamar Blue dye;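 further: cells exposed to compound for about 4 days, then Alamar Blue added and dye fluorescence read after about 4 h, compared with medium-only control wells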
Format: cell-based
Details: Homo sapiens, HCT-116, second HCT-116 column (c8); read-out: HCT-116 (uM) cell proliferation modulatory activity

- structureString: "CN(c1cccc(Cl)c1)c1nc2cc(C(=O)O)ccc2c2cnccc12"
  targetOrSystem: "HCT-116 human colorectal carcinoma cells"
  IC50: "> 10 µM"
- structureString: "N#Cc1ccc2c(c1)nc(N1CCNCC1)c1ccsc12"
  targetOrSystem: "HCT-116 human colorectal carcinoma cells"
  IC50: "4.09 µM"
- structureString: "COc1ccc(Nc2nc3cc(C(=O)O)ccc3c3cnccc23)cc1OC"
  targetOrSystem: "HCT-116 human colorectal carcinoma cells"
  IC50: "> 10 µM"
- structureString: "CN(C)CCNc1nc2cc(-c3nnn[nH]3)ccc2c2sc(Br)cc12"
  targetOrSystem: "HCT-116 human colorectal carcinoma cells"
  IC50: "> 10 µM"
- structureString: "CN(CCc1ccccn1)c1nc2cc(C#N)ccc2c2sccc12"
  targetOrSystem: "HCT-116 human colorectal carcinoma cells"
  IC50: "> 10 µM"
- structureString: "CN(C)C1CCN(c2nc3cc(C#N)ccc3c3sccc23)CC1"
  targetOrSystem: "HCT-116 human colorectal carcinoma cells"
  IC50: "6.57 µM"
- structureString: "O=C(O)c1ccc2c(c1)nc(Nc1ccc(OCc3ccccc3)cc1)c1ccncc12"
  targetOrSystem: "HCT-116 human colorectal carcinoma cells"
  IC50: "> 10 µM"
- structureString: "NC(=O)c1ccc2c(c1)nc(Nc1cccc(C(F)(F)F)c1)c1ccncc12"
  targetOrSystem: "HCT-116 human colorectal carcinoma cells"
  IC50: "4.28 µM"
- structureString: "O=C(O)c1ccc2c(c1)nc(Nc1ccc(F)c(Cl)c1)c1ncccc12"
  targetOrSystem: "HCT-116 human colorectal carcinoma cells"
  IC50: "> 10 µM"

----------
Target: each individual kinase of the panel (Homo sapiens, UniProt Q04759)
Assay: Standardized radiometric kinase assays, percentage of activity at 0.5 μM;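 further: Read-out is ³³P-labelled substrate protein phosphorylated by each kinase, captured on filters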
Known PRKCT percentage of activity of a selection of compounds

- compound: "NC(=O)c1ccc2c(c1)nc(Nc1cccc(Cl)c1)c1ccncc12 [drawing 1138]"
  targetOrSystem: "each individual kinase of the panel (Homo sapiens, UniProt Q04759)"
  unitTag: "%"
  PRKCT percentage of activity: 1
- compound: "C#Cc1cccc(Nc2nc3cc(C(=O)O)ccc3c3cnccc23)c1 [drawing 1137]"
  targetOrSystem: "each individual kinase of the panel (Homo sapiens, UniProt Q04759)"
  unitTag: "%"
  PRKCT percentage of activity: 10
- compound: "C#Cc1cccc(Nc2nc3cc(C(=O)O)ccc3c3cncnc23)c1 [drawing 1135]"
  targetOrSystem: "each individual kinase of the panel (Homo sapiens, UniProt Q04759)"
  unitTag: "%"
  PRKCT percentage of activity: "−11"

----------
Known inhibition at 0.5 µM of a selection of molecules
Molecular target: recombinant human PIM1 (Homo sapiens (Human), UniProt P11309)
Sequence (P11309 whole entry): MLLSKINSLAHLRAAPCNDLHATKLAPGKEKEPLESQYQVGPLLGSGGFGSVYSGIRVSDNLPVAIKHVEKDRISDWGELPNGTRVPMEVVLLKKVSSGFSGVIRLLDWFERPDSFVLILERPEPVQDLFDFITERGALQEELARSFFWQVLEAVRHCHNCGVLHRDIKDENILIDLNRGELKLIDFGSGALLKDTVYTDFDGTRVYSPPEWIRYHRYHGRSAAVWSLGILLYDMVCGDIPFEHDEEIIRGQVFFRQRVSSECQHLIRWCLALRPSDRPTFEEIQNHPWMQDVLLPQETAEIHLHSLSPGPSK
Assay: PIM-1 kinase activity in cell-free in vitro assay
Type: biochemical
Settings: 500 nM compound, cell-free assay; read-out: PIM-1: % inh 500 nM

- molecule: "CN(c1ccccc1)c1nc2cc(C(=O)O)ccc2c2cnccc12"
  targetOrSystem: "recombinant human PIM1 (Homo sapiens (Human), UniProt P11309)"
  inhibition at 0.5 µM / %: 71.2
- molecule: "CN1CCCCC1CNc1nc2cc(C(=O)O)ccc2c2cnccc12 (stereo not drawn)"
  targetOrSystem: "recombinant human PIM1 (Homo sapiens (Human), UniProt P11309)"
  inhibition at 0.5 µM / %: 82.5
- molecule: "CCOc1ncc2c(n1)c(NC1CC1)nc1cc(C(=O)O)ccc12 [drawing 1615]"
  targetOrSystem: "recombinant human PIM1 (Homo sapiens (Human), UniProt P11309)"
  inhibition at 0.5 µM / %: 11.1
- molecule: "Fc1ccc(Nc2nc3cc(-c4nnn[nH]4)ccc3c3cscc23)cc1"
  targetOrSystem: "recombinant human PIM1 (Homo sapiens (Human), UniProt P11309)"
  inhibition at 0.5 µM / %: 30.6
- molecule: "O=C(O)c1ccc2c(c1)nc(NCC1CCN1Cc1ccccc1)c1ccncc12 (stereo not drawn)"
  targetOrSystem: "recombinant human PIM1 (Homo sapiens (Human), UniProt P11309)"
  inhibition at 0.5 µM / %: -7.8
- molecule: "O=C(O)c1ccc2c(c1)nc(NC1CC1)c1nc(Nc3cccc(Cl)c3)ncc12"
  targetOrSystem: "recombinant human PIM1 (Homo sapiens (Human), UniProt P11309)"
  inhibition at 0.5 µM / %: 23.2

----------
Tested on: K-562
Experiment: Cell proliferation modulatory activity, K-562
Type: cell-based
Details: Homo sapiens, K562; Table 45; read-out: K-562 IC50
pIC50: −log10 of the molar value.

- structureString: "NC(=O)c1cccc2c1nc(Nc1ccc(F)cc1)c1ccncc12"
  targetOrSystem: "K-562"
  pIC50: "> 5.30"
- structureString: "NC(=O)c1cccc2c1nc(Nc1cccc(Cl)c1)c1cnccc12"
  targetOrSystem: "K-562"
  pIC50: "< 5.00"
- structureString: "COCCNc1nc2c(-c3nc[nH]n3)cccc2c2cnccc12"
  targetOrSystem: "K-562"
  pIC50: "> 5.00"
- structureString: "Clc1cccc(Nc2nc3c(-c4nc[nH]n4)cccc3c3ccncc23)c1"
  targetOrSystem: "K-562"
  pIC50: "< 5.00"

----------
Molecular target: recombinant human PIM1 (Homo sapiens (Human), UniProt P11309)
Assay: PIM-1 kinase activity in cell-free in vitro assay
Type: biochemical
Details: 500 nM compound, cell-free; read-out: PIM-1: % inh 500 nM

- molecule: "FC(F)(F)c1cccc(Nc2nc3cc(-c4nnn[nH]4)ccc3c3sccc23)c1"
  targetOrSystem: "recombinant human PIM1 (Homo sapiens (Human), UniProt P11309)"
  inhibition at 0.5 µM: "59%"
- molecule: "COCCNC(=O)c1cccc(Nc2nc3cc(C(=O)O)ccc3c3sccc23)c1"
  targetOrSystem: "recombinant human PIM1 (Homo sapiens (Human), UniProt P11309)"
  inhibition at 0.5 µM: "12%"
- molecule: "Clc1cccc(Nc2nc3cc(-c4nnn[nH]4)ccc3c3sccc23)c1"
  targetOrSystem: "recombinant human PIM1 (Homo sapiens (Human), UniProt P11309)"
  inhibition at 0.5 µM: "83.3%"
- molecule: "O=C(O)c1ccc2c(c1)nc(Nc1ccccc1)c1ccncc12"
  targetOrSystem: "recombinant human PIM1 (Homo sapiens (Human), UniProt P11309)"
  inhibition at 0.5 µM: "21.9%"
- molecule: "COC(=O)c1ccc2c(c1)nc(Nc1ccccc1)c1ccsc12"
  targetOrSystem: "recombinant human PIM1 (Homo sapiens (Human), UniProt P11309)"
  inhibition at 0.5 µM: "2.59%"
- molecule: "O=C(O)c1ccc2c(c1)nc(Nc1cccc(C(=O)Nc3nccs3)c1)c1ccsc12"
  targetOrSystem: "recombinant human PIM1 (Homo sapiens (Human), UniProt P11309)"
  inhibition at 0.5 µM: "5.99%"
- molecule: "O=C(O)c1ccc2c(c1)nc(NCCc1cccc(Cl)c1)c1ccncc12 [drawing 1559]"
  targetOrSystem: "recombinant human PIM1 (Homo sapiens (Human), UniProt P11309)"
  inhibition at 0.5 µM: "43.1%"
- molecule: "O=C(O)c1ccc2c(c1)nc(Nc1cccc(Cl)c1F)c1ccsc12"
  targetOrSystem: "recombinant human PIM1 (Homo sapiens (Human), UniProt P11309)"
  inhibition at 0.5 µM: "27.6%"

----------
Target: recombinant human PIM1 (Homo sapiens (Human), UniProt P11309)
Experiment: PIM-1 kinase activity in cell-free in vitro assay
Format: biochemical
Settings: 500 nM compound, cell-free; read-out: PIM-1: % inh 500 nM
Label Fulfilled when inhibition at 0.5 µM is at or above 60%; otherwise label Not fulfilled.

- compound: "CC(=O)Nc1cccc(Nc2nc3cc(-c4nnn[nH]4)ccc3c3sccc23)c1"
  targetOrSystem: "recombinant human PIM1 (Homo sapiens (Human), UniProt P11309)"
  discreteLabel: "Not fulfilled"
- compound: "C#Cc1cccc(Nc2nc3cc(-c4nnn[nH]4)ccc3c3sccc23)c1"
  targetOrSystem: "recombinant human PIM1 (Homo sapiens (Human), UniProt P11309)"
  discreteLabel: "Fulfilled"
- compound: "O=C(O)c1ccc2c(c1)nc(OCCCO)c1ccccc12 [drawing 1388]"
  targetOrSystem: "recombinant human PIM1 (Homo sapiens (Human), UniProt P11309)"
  discreteLabel: "Not fulfilled"
- compound: "CCc1cccc(Nc2nc3cc(C(=O)O)ccc3c3sccc23)c1"
  targetOrSystem: "recombinant human PIM1 (Homo sapiens (Human), UniProt P11309)"
  discreteLabel: "Not fulfilled"
- compound: "O=C(O)c1ccc2c(c1)nc(Nc1cc(Cl)cc(Cl)c1)c1ccsc12"
  targetOrSystem: "recombinant human PIM1 (Homo sapiens (Human), UniProt P11309)"
  discreteLabel: "Fulfilled"
- compound: "O=C(O)c1ccc2c(c1)nc(Nc1cccc(F)c1)c1ncncc12"
  targetOrSystem: "recombinant human PIM1 (Homo sapiens (Human), UniProt P11309)"
  discreteLabel: "Fulfilled"
- compound: "c1ccc2c(c1)ncn2-c1nc2cc(-c3nnn[nH]3)ccc2c2sccc12"
  targetOrSystem: "recombinant human PIM1 (Homo sapiens (Human), UniProt P11309)"
  discreteLabel: "Fulfilled"
- compound: "O=C(O)c1ccc2c(c1)nc(Nc1cccc(Br)c1)c1ccsc12"
  targetOrSystem: "recombinant human PIM1 (Homo sapiens (Human), UniProt P11309)"
  discreteLabel: "Not fulfilled"
- compound: "Fc1cccc(Nc2nc3cc(-c4nnn[nH]4)ccc3c3cnccc23)c1"
  targetOrSystem: "recombinant human PIM1 (Homo sapiens (Human), UniProt P11309)"
  discreteLabel: "Not fulfilled"
- compound: "O=C(O)c1ccc2c(c1)nc(Nc1ccc(F)c(F)c1)c1ccsc12"
  targetOrSystem: "recombinant human PIM1 (Homo sapiens (Human), UniProt P11309)"
  discreteLabel: "Fulfilled"
